Cited source for all entries: patent US20230014722A1

Target: T1, mPD-1.His (mouse, UniProt Q02242 25-167, limits assumed)
T1 construct: Soluble analyte, probably the extracellular domain; also called mouse PD-1 (SPR analyte)
T1 sequence (looked up): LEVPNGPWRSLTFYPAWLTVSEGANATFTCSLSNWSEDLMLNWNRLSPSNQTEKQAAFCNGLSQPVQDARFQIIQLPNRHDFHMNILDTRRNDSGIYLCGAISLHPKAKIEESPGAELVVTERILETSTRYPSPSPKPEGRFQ
Assay: SPR (ProteOn XPR36), antibody captured on Protein A, PD-1.His as analyte, 1:1 fit
REPORTED_ENDPOINT: pKd
One number for each entry, as −log10 of the molar value.

Report pKd for 2G4 (antibody, human IgG4, V domains shown) VH: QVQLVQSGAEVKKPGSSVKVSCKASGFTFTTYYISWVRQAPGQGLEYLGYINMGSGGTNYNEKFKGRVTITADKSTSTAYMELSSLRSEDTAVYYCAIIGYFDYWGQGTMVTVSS VL: DVVMTQSPLSLPVTLGQPASISCRSSQSLLDSDGSTYLYWFQQRPGQSPRRLIYLVSTLGSGVPDRFSGSGSGTDFTLKISRVEAEDVGVYYCMQLTHWPYTFGQGTKLEIK 8.41
